meta.source: PubChem BioAssay AID624330

biological target: Rac GTPase-activating protein 1 (Homo sapiens); experiment: blockers of MgcRacGAP-driven Rac1 GTP hydrolysis – biochemical, ADP Hunter fluorescence, primary and confirmatory, confirmation (AID 624330); details: MgcRacGAP-stimulated Rac1 GTP hydrolysis, at 30 µM, stronger effect = higher value, GST-tagged Rac1 F28L mutant substrate;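 note: fluorescence reports GDP produced by GAP-driven GTP hydrolysis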
The campaign covered roughly 340,000 compounds. About 2,100 (0.62%) were called active. The list is a sample of the results. Measured potencies and affinities stand elsewhere.
Reported endpoint: inhibition

Solved cases (3 shown):
>  <Molecule>
Cn1c(-c2ccccc2)cc(=O)c2ccccc21

>  <Tested system>
Rac GTPase-activating protein 1 (Homo sapiens)

>  <inhibition>
12.4% (inactive)

$$$$
>  <Molecule>
CCOC(=O)N1c2ccccc2Sc2ccccc21

>  <Tested system>
Rac GTPase-activating protein 1 (Homo sapiens)

>  <inhibition>
1.37% (inactive)

$$$$
>  <Molecule>
COc1ccc(NC(=S)NCCSc2ccc(Cl)cc2)c(OC)c1

>  <Tested system>
Rac GTPase-activating protein 1 (Homo sapiens)

>  <inhibition>
-1.73% (inactive)

$$$$

Problem: Given the entry `CC(C)Cc1nc2sc3c(c2c(=O)n1N)CC(C)(C)OC3` , what inhibition was observed with Rac GTPase-activating protein 1 (Homo sapiens)?
Result: -0.31% (inactive)

Problem: Given the entry `COc1ccc(/C=N/n2c(SC)nnc2-c2ccccc2)cc1C` , what inhibition was observed with Rac GTPase-activating protein 1 (Homo sapiens)?
Result: 12.1% (inactive)

Problem: Given the entry `COc1cc(/C=C2\C(=O)ON=C2c2ccccc2)cc(OC)c1OC` , what inhibition was observed with Rac GTPase-activating protein 1 (Homo sapiens)?
Result: 15% (inactive)

* * *

Listed here: items and their measured inhibition.
molecular target: Rac GTPase-activating protein 1 (Homo sapiens); assay: blockers of MgcRacGAP-driven Rac1 GTP hydrolysis – biochemical, ADP Hunter fluorescence, primary and confirmatory, confirmation (AID 624330); conditions: MgcRacGAP-stimulated Rac1 GTP hydrolysis, at 30 µM, stronger effect = higher value, GST-tagged Rac1 F28L mutant substrate;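 note: fluorescence reports GDP produced by GAP-driven GTP hydrolysis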
Among all 340,000 compounds or so, about 2,100 (0.62%) were called active. Only a sample is shown. Entries with a potency or affinity are not part of this list.

>  <Molecule>
COc1cccc(/C=N/Nc2nn3cnnc3c3ccccc23)c1O

>  <inhibition>
7.65% (inactive)

$$$$

Problem: Which inhibition value belongs to O=C(NCc1ccco1)C1CCCN(c2nnc(-n3cccc3)s2)C1 (stereo unspecified) ?
Result: 14.7% (inactive)

Problem: Which inhibition value belongs to `Cn1c(SCC(=O)N2CCc3ccccc3C2)nnc1-c1cccs1` ?
Result: -0.2% (inactive)

Problem: Which inhibition value belongs to `CC(=O)NCc1nc2ccccc2n1Cc1ccccc1F` ?
Result: 2.14% (inactive)

Problem: Which inhibition value belongs to `CCOc1cccc(/C=N/NC(=O)c2cc(C3CC3)[nH]n2)c1O` ?
Result: 9.09% (inactive)

Problem: Which inhibition value belongs to `ON=C1c2ccccc2-c2ccc(F)cc21` ?
Result: -0.77% (inactive)

Problem: Which inhibition value belongs to `CC(C)c1nnc(NC(=O)c2cccc(-n3cnnn3)c2)s1` ?
Result: 10.5% (inactive)

Problem: Which inhibition value belongs to `Cc1ncc(CO)c(/C=N/Nc2ccc(C(F)(F)F)cn2)c1O` ?
Result: 61.5% (inactive)

Problem: Which inhibition value belongs to CC1=C(C(=O)N(C)C)CC(CC(=O)NCCN2CCOCC2)C(=O)N1CCC1=CCCCC1 (stereo unspecified) ?
Result: 19.4% (inactive)

Problem: Which inhibition value belongs to `Cn1cc(C(=O)N/N=C/c2cccc(O)c2)ccc1=O` ?
Result: 7.64% (inactive)

Problem: Which inhibition value belongs to `CC(C)(C)N1C(=O)c2ccc(C(=O)Nc3cc(C(=O)O)cc(C(=O)O)c3)cc2C1=O` ?
Result: 13.1% (inactive)

Problem: Which inhibition value belongs to `CCOc1ccc(/C=N/NC(=O)C2CC2)cc1OC` ?
Result: 4.39% (inactive)

Problem: Which inhibition value belongs to COCCCNC(=O)CC1C[C@H](C(=O)N2CCOCC2)[C@@]2(CCC3CCCC3)c3[nH]c4ccc(OC)cc4c3CCN2C1=O (stereo partly specified) ?
Result: 3.79% (inactive)

Problem: Which inhibition value belongs to `COc1ccc(/C=N/NC(=O)c2ccc(=O)n(C)c2)cc1OC` ?
Result: 11.2% (inactive)

Problem: Which inhibition value belongs to `C=CCn1c(COc2ccccc2)nnc1SCC(=O)N/N=C/c1ccc(C)cc1` ?
Result: 1.44% (inactive)

Problem: Which inhibition value belongs to `CNC(=O)C(=O)Nc1ccc2c(c1)N(S(=O)(=O)c1cccs1)CCC2` ?
Result: 4.61% (inactive)

Problem: Which inhibition value belongs to `NCCNC(=O)c1c(NC(=O)c2ccccc2)sc2c1CCCC2` ?
Result: 10.3% (inactive)

Problem: Which inhibition value belongs to `COc1ccc(/C=N/Nc2nn3cnnc3c3ccccc23)cc1` ?
Result: 13.1% (inactive)

Problem: Which inhibition value belongs to `FC(F)(F)c1ccc(N/N=C/c2cccnc2)nc1` ?
Result: 4.55% (inactive)

Problem: Which inhibition value belongs to `CCOc1cc(/C=N/NC(=O)C2CCCC2)ccc1OC(C)C` ?
Result: 7.91% (inactive)

Problem: Which inhibition value belongs to `N#Cc1ccc(NC(=O)Cn2c3[n+](c4ccc(C(F)(F)F)cc42)CCCCC3)cc1` ?
Result: -1.69% (inactive)
